Kindly state growth for each of the entries shown.
# Test system: SN12C renal
# assay-info: NCI-60 one-dose screen, 48 h (100 = growth as untreated, 0 = no growth, -100 = all killed)
# test-conditions: 10 µM unless noted
The panel holds about 83,000 compounds, 20% with a hit somewhere; the sample as a whole holds those more often.
Please respond with the number in % and leave the unit unwritten.

Please report the recorded growth for NC1=C(c2nn[nH]n2)C(c2ccccc2Cl)c2ccc3ccccc3c2O1 (stereo unspecified) . 84

Note, next up: c1ccc2c(c1)Nc1ccncc1S2 97.6

Note, next up: COc1ccc(-c2nc(NN)c3c(C)nn(-c4ccc(F)cc4)c3n2)cc1 44.5

Note, next up: C(=N/Nc1ncnc2nc[nH]c12)/c1ccccn1 36.6

Note, next up: CCOC(=O)NCCc1ccccc1 99.2

Note, next up: CCOc1ccc2nc(SCc3nc4n(n3)S(=O)(=O)c3ccccc3N4C)sc2c1 22.2

---

# System: RXF 393 renal
# assay-info: NCI-60 one-dose screen, 48 h
# test-conditions: 10 µM unless noted
This is part of a sample that, as a whole, favours compounds with a hit. Of some 83,000 tested, about 20% had one in any assay. Activity calls are given as the source filed them. How the source made its calls: active means growth percent below 10; inactive means the rest.
Your answer must be one of the following: active, inactive

Please let me know the test result on file for Cc1cc(O)c(C2=NN(c3ccc(S(N)(=O)=O)cc3)C(c3ccccc3O)C2)cc1Cl (centres undefined) . active

Note, next up: CC(=O)OC[C@H]1OC(Sc2sc(C(=O)c3ccc(Cl)cc3)c(N)c2-c2nc3ccccc3s2)[C@H](OC(C)=O)[C@@H](OC(C)=O)[C@@H]1OC(C)=O (some centres undefined) inactive

Note, next up: C=C1CC[C@H](C(C)C)[C@@H]2[C@H]1[C@H]1CC(=C)[C@@H](O)CC[C@@](C)(O)[C@@H]2O1 inactive

Note, next up: CCc1cccc2c1S/C(=C/c1ccc(OC)cc1)C2=O inactive

Note, next up: COc1ccc(-c2c(C(=O)NS(C)(=O)=O)n(Cc3cccc(C(F)(F)F)c3)c3ccccc23)cc1 inactive

Note, next up: Nc1ccc(Sc2ccc([N+](=O)[O-])c3nonc23)cc1 inactive

Note, next up: CN1CCN(c2ccc(-c3cc4c(Nc5ccc(F)c(Cl)c5)ncnn4c3)cc2)CC1 inactive

Note, next up: COc1cccc2c(=O)c3c(sc12)c(NCCCN)nc1ccccc13 inactive

Note, next up: N#C/C(=C\c1ccc(F)cc1)n1nc2cccc(F)c2n1 inactive

Note, next up: N[C@@H](Cc1ccccc1)[C@@H](O)C(=O)NCc1ccc(F)cc1 inactive

Note, next up: COc1cc(C(=O)c2cc(C)c3[nH]c4ccc(C)cc4c3c2C)cc(OC)c1OC inactive

Note, next up: O=C1COCCN1c1ccc(NCc2cn(C(=O)c3ccc(Cl)cc3)c3ccccc23)cc1 active

Note, next up: COc1ccc(/C=C(\C#N)n2nnc3c(F)cccc32)cc1 active

Note, next up: CNCCCC12CCC(c3ccccc31)c1ccccc12 inactive

Note, next up: CCCCOc1nc2c(C)cccc2cc1-c1cc(-c2ccc(Cl)cc2)nc(-c2ccc(Cl)cc2)c1 inactive

Note, next up: C#Cc1cccc(NC(=O)c2ccc(NC(=O)C=C)cc2)c1 inactive

Note, next up: COc1cc(/C=C/C(=O)/C=C/c2cc(OC)c3c(c2OC)OCO3)c(OC)c2c1OCO2 inactive

Note, next up: COc1cc2cc(Oc3ccc(NC(=O)Nc4ccc(F)c(C(F)(F)F)c4)cc3)c(C)nc2cc1OCCN1CCOCC1 inactive

Note, next up: COc1cc2cc(Oc3ccc(NC(=O)Nc4cc(C(F)(F)F)cc(C(F)(F)F)c4)cc3)c(C)nc2cc1OCCN1CCOCC1 inactive

---

# System: NCI/ADR-RES ovarian
# assay-info: NCI-60 one-dose screen, 48 h (100 = growth as untreated, 0 = no growth, -100 = all killed)
# test-conditions: 10 µM unless noted
Compounds without any hit were thinned out: in the full panel of roughly 83,000, 20% have a hit. Calls of active or inactive are those of the source. The calls were made as follows: active = growth percent below 10; inactive = the rest.
measurement-type: growth

Item COc1ccc(-c2conc2-c2ccccc2)cc1 with NCI/ADR-RES ovarian - growth? 6.05% (active)

Note, next up: CCCC1CCC(O)(C(C)(O)C(=O)NC2C(=O)N3NCCCC3C(=O)N(O)C(C)C(=O)N3NCCCC3C(=O)N3NCC(O)CC3C(=O)NC(C)C(=O)OC2C(C)C)OC1CC (stereo not given) -76.7% (active)

Note, next up: CCn1cnc2c1c(=O)[nH]c(=O)n2CC1CCC(CNS(=O)(=O)c2ccc(OC3CCOCC3)c(F)c2)CC1 (stereo not given) 95.8% (inactive)

Note, next up: CNc1ccc(Nc2cccc(C)c2)c2c1C(=O)c1ccccc1C2=O 98.8% (inactive)

Note, next up: O=C1NC(=O)C(c2ccccc2)(c2ccccc2)N1Cc1cn(-c2c3ccccc3nc3ccccc23)nn1 87% (inactive)

Note, next up: COc1cccc(-c2nc(-c3ccc(NC(=O)OC(C)C)cc3)[nH]c2-c2ccnc(Br)c2)c1 27.7% (inactive)

Note, next up: N#Cc1cccc(NC(=O)c2cc(-c3ccc(F)cc3F)ccc2O)c1 4.93% (active)

Note, next up: O=C(O)c1cn(C2CC2)c2cc(N3CCN(C(=O)Nc4nc(-c5ccc(Cl)cc5)cs4)CC3)c(F)cc2c1=O 38.1% (inactive)

Note, next up: Cc1ccc(C2CC(c3ccc(Nc4ccnc5cc(Cl)ccc45)cc3)=NN2C=O)cc1 (stereo not given) 42.3% (inactive)

Note, next up: COc1ccc(C(Cc2ccccc2)NCCN2CCOCC2)cc1 (stereo not given) 98.7% (inactive)

Note, next up: c1ccc(-c2nc3nonc3nc2-c2ccccc2)cc1 74.4% (inactive)

Note, next up: COc1cc2cc(Oc3ccc(NC(=O)Nc4ccc(Cl)c(C(F)(F)F)c4)cc3)c(C)nc2cc1OCCN1CCOCC1 11.4% (inactive)

Note, next up: COc1cc(CCCO)c(OC)c(OC)c1OC 104% (inactive)

Note, next up: O=c1c2cc(F)ccc2sc2c(N3CCNCC3)nc3ccc(F)cc3c12 4.72% (active)

Note, next up: CN1C(=O)N(C)C2Nn3c(s/c(=C\c4ccccc4)c3=O)=NC21 (stereo not given) 99.7% (inactive)

Note, next up: c1ccc2c(c1)Nc1ccncc1S2 107% (inactive)

Note, next up: O=c1ccc(N=Nc2ccc([N+](=O)[O-])cc2)ccc1O -1.1% (active)

Note, next up: CCOC(=O)C1=C(N)Oc2c(sc3c(C)cccc23)C1c1ccc(Cl)cc1 (stereo not given) 24.6% (inactive)

Note, next up: Cc1ccc(C(C)C)cc1C(=O)C[n+]1ccccc1 107% (inactive)

Note, next up: Cc1ncc(C(=O)Nc2ccc(CN3CCN(C)CC3)c(C(F)(F)F)c2)cc1C#Cc1ccc(N)nc1 9.79% (active)

Note, next up: CC(=O)Oc1ccccc1C(=O)N=C1[Se]CCCN1C(=O)c1ccccc1OC(C)=O 29% (inactive)

Note, next up: Cc1cccc2c3c(sc12)C(c1ccc(Cl)cc1)C(C#N)=C(N)O3 (stereo not given) 9.13% (active)

Note, next up: COc1cc(C2CC(c3cccc(Br)c3)=NN2C(C)=O)cc(OC)c1OC (stereo not given) -19.5% (active)

Note, next up: CCCCCCNC(=O)Oc1ccc(/C(=C(\C)c2ccc(Cl)cc2)c2ccc(OCCN(CC)CC)cc2)cc1 72.7% (inactive)

Note, next up: O=C(N/N=C/c1c(Cl)cccc1Cl)c1ccc(C(F)(F)F)nc1Nc1cccc(C(F)(F)F)c1 -4.2% (active)

Note, next up: CCOC(=O)CCN(C(=O)Nc1ccccc1)C1CCCCC1 106% (inactive)

Note, next up: Cc1cc(=O)oc2cc(OC(=O)N3CCN(C)CC3)ccc12 104% (inactive)

Note, next up: COc1ccc(C(=O)/C=C/c2sc(Cl)nc2Cl)cc1 1.37% (active)

Note, next up: CC(=O)O.CN1[CH-]N(Cc2ccc(C#N)cc2)c2ccccc21.[Ag+] 109% (inactive)

Note, next up: Cc1ccc(-c2nc(N3CCN(C(=O)Nc4ccc(Cl)c(C(F)(F)F)c4)CC3)c3ccccc3n2)cc1 69.1% (inactive)

Note, next up: O=C(Nc1ccc(Br)cc1F)c1cc(Br)ccc1O 7.36% (active)

Note, next up: C[C@H]1[C@H]2[C@H]3CC[C@@H]4[C@@]5(C)CC[C@H](O)C(C)(C)[C@@H]5CC[C@@]4(C)[C@]3(C)CC[C@]23CO[C@]1(C)[C@@H](C(=O)/C=C\c1cccnc1)C3 78.9% (inactive)

Note, next up: c1ccc(CO[C@H]2CO[C@H]3[C@@H]2OC[C@@H]3Oc2ccc(Nc3ncnc4ccsc34)cc2)cc1 73.3% (inactive)

Note, next up: CC1=NN(c2ccc(S(=O)(=O)O)cc2)C(=O)C1N=Nc1ccc(-c2ccc(N=Nc3ccc(OS(=O)(=O)c4ccc(C)cc4)cc3)c(S(=O)(=O)O)c2)cc1 (stereo not given) 97.9% (inactive)

Note, next up: Cc1cc(O)c(C2=NN(c3ccc(S(N)(=O)=O)cc3)C(/C=C/c3ccccc3)C2)cc1Cl (stereo not given) 29.7% (inactive)

Note, next up: COc1ccc(C(=O)C(C)C)c2ccccc12 107% (inactive)

Note, next up: Oc1c(I)cc(I)cc1CNCCCN(Cc1ccccn1)Cc1ccccn1 -17.1% (active)

Note, next up: CC(=O)CC(c1cccs1)c1c(-c2ccccc2)[nH]c2ccccc12 (stereo not given) 69% (inactive)

Note, next up: Cc1ccc2sc3c(NCCCN)nc4ccccc4c3c(=O)c2c1 39.4% (inactive)

Note, next up: COc1ccc(N2C(=O)C(Oc3ccccc3)C2c2ccc(C)cc2)cc1 (stereo not given) 101% (inactive)
